Data credit: PubChem BioAssay

Test: HUVEC growth inhibition – cell-based, human, primary screen (AID 575)
Conditions: HUVEC proliferation, CellTiter-Glo luminescence, 72 h; at 10 µM; stronger effect = lower value
Under this convention, Yes denotes viability strictly below 90% and No denotes viability at or above 90%.

The following compounds have reported results that may help.
{"compound": "COCCn1c(NCc2ccc(C)cc2)nc2c1c(=O)[nH]c(=O)n2C", "label": "Yes"}
{"compound": "Cc1cc2ncn(N)c2cc1C", "label": "No"}
{"compound": "O=C(O)CC1SC(=Nc2cccc(C(F)(F)F)c2)NC1=O (centres undefined)", "label": "No"}
{"compound": "Cc1cc(-c2ccc(F)cc2)nc2cc(C(N)=O)nn12", "label": "Yes"}
{"compound": "COCCN(CC(=O)NCc1ccccc1)C(=O)CCC(=O)Nc1ccccn1", "label": "No"}

Please let me know if COc1ccc(OC)c(S(=O)(=O)Nc2ccccc2C(=O)O)c1 shows viability below 90%. No

Say whether its viability is strictly beneath 90%. Entry: COc1ccc(NC(=O)CSC2=C(C#N)C(c3ccco3)C3=C(CCCC3=O)N2)c(OC)c1 (centres undefined) Yes

viability under 90%? Item: CC1(C)NC(=O)N(CNc2cc(Cl)ccc2Cl)C1=O Yes

Is viability strictly under 90% for the entry CCc1ccc(NC(=O)CSc2nnc(Cc3cccn3C)n2-c2ccc(OC)cc2)cc1 ? Yes

Just wondering, is viability of Cc1noc(C)c1S(=O)(=O)NCCN1CCN(c2ccccc2)CC1 below 90%? No

A record lists CC(=O)c1cccc(S(=O)(=O)NCC(c2ccco2)N2CCCCC2)c1 (centres undefined) . Is its viability below 90%? No

Hello, I'm reviewing records and need to know if viability of CCOC(=O)c1c(NC(=O)c2ccn(CC)n2)sc2c1CCCC2 is below 90%. Could you check? Yes
